- Study System: CD47 on HL60 cells (UniProt Q08722 19-323, limits assumed)
- Assay Method Text: cell-based or functional assay
Observable: rate of phagocytosis, antibody 1 µg/mL (%)
Note: unit % is implicit; provide only the numeric part.

* hz3F10-6.2 (antibody, human IgG4 S228P, kappa, V domains shown, humanized 3F10, full-length heavy and light chains) VH: QVQLVQSGAEVKKPGSSVKVSCKASGYTFSRYWIEWVRQAPGQGLEWMGEFIPGSDTTNYAQKFQGRVTITAEISTNTAYMELSSLRSEDTAVYYCARGGLRRMDYWGQGTLVTVSS VL: DIQMTQSPSSLSASVGDRVTITCRASSSVSSTYLHWYQQKPGKAPKLWIYTTSTLASGVPSRFSGSGSGTSYTLTISSLQPEDFATYYCQQFSESTWTFGQGTKLEIKR | 49.3
* hz3F10-4.2 (antibody, human IgG4 S228P, kappa, V domains shown, humanized 3F10, full-length heavy and light chains) VH: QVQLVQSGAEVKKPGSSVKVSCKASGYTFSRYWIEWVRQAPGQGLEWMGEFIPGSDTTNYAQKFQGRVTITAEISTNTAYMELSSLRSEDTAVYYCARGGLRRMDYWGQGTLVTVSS VL: DIQMTQSPSSLSASVGDRVTITCRASSSVSSTYLHWYQQKPGKAPKLLIYTTSTLASGVPSRFSGSGSGTSYTLTISSLQPEDFATYYCQQFSESTWTFGQGTKLEIKR | 46.2
* hz3F10-5.2 (antibody, human IgG4 S228P, kappa, V domains shown, humanized 3F10, full-length heavy and light chains) VH: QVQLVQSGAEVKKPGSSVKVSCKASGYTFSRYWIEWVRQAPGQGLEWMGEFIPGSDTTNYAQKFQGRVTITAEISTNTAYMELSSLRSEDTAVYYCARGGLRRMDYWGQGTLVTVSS VL: DIQMTQSPSSLSASVGDRVTITCRASSSVSSTYLHWYQQKPGKAPKLWIYTTSTLASGVPSRFSGSGSGTSYTLTISSLQPEDFATYYCQQFSDSTWTFGQGTKLEIKR | 47.1
* hz3F10-3.1 (antibody, human IgG4 S228P, kappa, V domains shown, humanized 3F10, full-length heavy and light chains) VH: QVQLVQSGAEVKKPGSSVKVSCKASGYTFSRYWIEWVRQAPGQGLEWMGEFIPGSDTTNYAQKFQGRVTITADISTSTAYMELSSLRSEDTAVYYCARGGLRRMDYWGQGTLVTVSS VL: DIQMTQSPSSLSASVGDRVTITCRASSSVSSTYLHWYQQKPGKAPKLLIYTTSTLASGVPSRFSGSGSGTSYTLTISSLQPEDFATYYCQQFSDSTWTFGQGTKLEIKR | 50.6

Field: next binder
Inquiry: Can you look up the measured rate of phagocytosis, antibody 1 µg/mL of hz3F10-1.2 (antibody, human IgG4 S228P, kappa, V domains shown, humanized 3F10, full-length heavy and light chains) VH: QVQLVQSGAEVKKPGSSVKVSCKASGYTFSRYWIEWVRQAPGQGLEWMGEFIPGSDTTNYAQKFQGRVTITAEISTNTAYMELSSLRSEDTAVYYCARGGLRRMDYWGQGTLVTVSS VL: DIQMTQSPSSLSASVGDRVTITCRASSSVSSTYLHWYQQKPGKAPKLLIYTTSTLASGVPSRFSGSGSGTDFTLTISSLQPEDFATYYCQQFSDSTWTFGQGTKLEIKR for me?
Reply text: 55.5
